meta.source: paper PMC6028563

# TARGET OR TEST SYSTEM: human A2B AR (Homo sapiens, UniProt P29275)
# Construct: expressed in transfected cells; host or cells: CHO cells
# Sequence (P29275 whole entry): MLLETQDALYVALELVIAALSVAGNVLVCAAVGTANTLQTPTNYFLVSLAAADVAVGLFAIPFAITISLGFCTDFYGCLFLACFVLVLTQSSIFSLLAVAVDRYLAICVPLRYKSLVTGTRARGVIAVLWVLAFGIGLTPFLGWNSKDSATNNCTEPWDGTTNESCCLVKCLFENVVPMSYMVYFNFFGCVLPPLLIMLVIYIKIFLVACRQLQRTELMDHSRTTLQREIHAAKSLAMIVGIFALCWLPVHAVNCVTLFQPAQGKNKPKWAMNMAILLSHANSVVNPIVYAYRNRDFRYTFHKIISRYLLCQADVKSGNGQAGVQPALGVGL
# PROTOCOL DETAILS: Radioligand binding assay at human A2B AR vs. [^3H]PSB-603
# SETUP CONDITIONS: at 1,000 nM, read-out: % inhibition of radioligand binding at indicated concentration, A2B vs. [^3H]PSB-603
PARAMETER: inhibition at 1 µM (%)

[I] CCn1c(=O)c2c(nc3n2CCN(Cc2cc(C(F)(F)F)cc(C(F)(F)F)c2)C3)n(C)c1=O [Compound 14q]
[II] CCn1c(=O)c2c(nc3n2CCN(Cc2ccc(Cl)cc2C(F)(F)F)C3)n(CC)c1=O [Compound 15o]
*Q* When their inhibition at 1 µM values are compared, which is larger, I or II ? # answer = label of selected item
*A* II
(II: 16%, I: 2%)

* * *

# TARGET OR TEST SYSTEM: rat A2A AR (Rattus norvegicus, UniProt P30543)
# Construct: A2A ARs of rat brain striatal membrane preparations; from tissue; host or cells: rat brain striatum membranes
# Sequence (P30543 whole entry): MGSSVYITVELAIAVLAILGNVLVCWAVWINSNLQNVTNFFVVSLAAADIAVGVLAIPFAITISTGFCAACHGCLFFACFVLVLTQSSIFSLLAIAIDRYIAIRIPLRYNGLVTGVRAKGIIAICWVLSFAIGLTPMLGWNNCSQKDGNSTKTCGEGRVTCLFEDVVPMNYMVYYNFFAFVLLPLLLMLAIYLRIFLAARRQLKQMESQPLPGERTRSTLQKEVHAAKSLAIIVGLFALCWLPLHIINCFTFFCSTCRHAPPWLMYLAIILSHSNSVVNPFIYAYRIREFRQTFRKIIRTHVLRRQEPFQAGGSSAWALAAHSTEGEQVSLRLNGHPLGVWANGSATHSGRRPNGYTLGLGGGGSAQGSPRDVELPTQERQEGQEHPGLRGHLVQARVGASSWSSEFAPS
# PROTOCOL DETAILS: Radioligand binding assay at rat A2A AR (rat brain striatum) vs. [^3H]MSX-2
# SETUP CONDITIONS: rat (r); rat brain striatum; n = 3; read-out: Ki ± SEM, A2A vs. [^3H]MSX-2
pKi: −log10 of the molar value.
PARAMETER: pKi

[1] CCn1c(=O)c2c(nc3n2CCN(Cc2c(Cl)cccc2Cl)C3)n(C)c1=O [Compound 14k]
[2] CCn1c(=O)c2c(nc3n2CCN(Cc2cc(C(F)(F)F)ccc2Cl)C3)n(C)c1=O [Compound 14m]
*Q* Compare reported pKi values for 1 and 2 . Which is lower? // output: label of the selected item
*A* 1
(1: 5.96, 2: 6.23)

* * *

# TARGET OR TEST SYSTEM: rat A2A AR (Rattus norvegicus, UniProt P30543)
# Construct: A2A ARs of rat brain striatal membrane preparations; from tissue; host or cells: rat brain striatum membranes
# PROTOCOL DETAILS: Radioligand binding assay at rat A2A AR (rat brain striatum) vs. [^3H]MSX-2
# SETUP CONDITIONS: rat (r); rat brain striatum; n = 3; read-out: Ki ± SEM, A2A vs. [^3H]MSX-2
# Description: Membrane preparations and radioligand binding assays at rat A1 (rat brain cortex) and rat A2A ARs (rat brain striatum) were performed as previously described (Ozola et al., [2003]; Alnouri et al., [2015]). […] The synthesized tetrahydropyrazino[2,1-f ]purinediones 13–20 were evaluated in radioligand binding assays for their affinity to A1 ARs of rat brain cortical membrane and to A2A ARs of rat brain striatal membrane preparations. […]
pKi: −log10 of the molar value.
PARAMETER: pKi

[1] CCn1c(=O)c2c(nc3n2CCN(Cc2ccccc2Br)C3)n(C)c1=O [Compound 14a]
[2] C#CCn1c(=O)c2c(nc3n2CCN(Cc2cccc(OC)c2)C3)n(CC)c1=O [Compound 20g]
*Q* Which one would you say has the larger pKi value: 1 , or 2 ? Give the label of your selection.
*A* 1
(1: 6.39, 2: 6.11)

* * *

# TARGET OR TEST SYSTEM: recombinant human MAO-B (Homo sapiens)
# Construct: purchased Sigma-Aldrich M7441; host or cells: baculovirus-infected insect cells
# Sequence (P27338 whole entry): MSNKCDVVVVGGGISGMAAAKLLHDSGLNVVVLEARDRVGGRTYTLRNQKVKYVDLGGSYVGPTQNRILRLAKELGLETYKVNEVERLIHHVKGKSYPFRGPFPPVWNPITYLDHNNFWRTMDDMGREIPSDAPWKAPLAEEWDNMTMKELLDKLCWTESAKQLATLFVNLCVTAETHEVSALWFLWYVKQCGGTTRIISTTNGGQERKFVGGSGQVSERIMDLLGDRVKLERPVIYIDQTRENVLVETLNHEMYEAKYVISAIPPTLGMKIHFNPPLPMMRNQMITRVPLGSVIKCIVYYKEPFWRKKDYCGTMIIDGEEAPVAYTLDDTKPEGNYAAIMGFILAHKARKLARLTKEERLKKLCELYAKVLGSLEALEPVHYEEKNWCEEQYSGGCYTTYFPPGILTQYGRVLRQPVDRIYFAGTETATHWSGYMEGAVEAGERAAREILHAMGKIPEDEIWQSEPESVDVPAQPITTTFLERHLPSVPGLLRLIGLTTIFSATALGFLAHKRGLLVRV
# PROTOCOL DETAILS: Monoamine oxidase assay (Amplex Red), MAO-B
# Assay type: biochemical
# SETUP CONDITIONS: n = 3; read-out: IC50 ± SEM, Human MAO-B
PARAMETER: IC50

For orientation, consider the following solved cases.
1. C#CCn1c(=O)c2c(nc3n2CCN(Cc2ccccc2)C3)n(CC)c1=O [Compound 20e] :: > 10 µM
2. CCn1c(=O)c2c(nc3n2CCN(Cc2ccc(F)cc2)C3)n(C)c1=O [Compound 14h] :: > 10 µM
3. CCn1c(=O)c2c(nc3n2CCN(Cc2cc(C(F)(F)F)ccc2Cl)C3)n(CC)c1=O [Compound 15n] :: ≤ 10 µM

*Q* IC50 lookup needed for CCn1c(=O)c2c(nc3n2CCN(Cc2cccc(Br)c2)C3)n(CC)c1=O [Compound 15d] , thanks.
*A* ≥ 10 µM

*Q* IC50 for C#CCn1c(=O)c2c(nc3n2CCN(CCc2ccc(OC)cc2)C3)n(CC)c1=O [Compound 20k] ?
*A* > 10 µM

*Q* Looking for the measured IC50 of CCn1c(=O)c2c(nc3n2CCN(Cc2cc(Cl)ccc2Cl)C3)n(C)c1=O [Compound 14j] , can you help?
*A* 3.98 µM

*Q* Entry CCCn1c(=O)c2c(nc3n2CCN(Cc2ccc(Cl)c(Cl)c2)C3)n(C)c1=O : reported IC50 = ?
*A* 2.91 µM

*Q* Query: IC50; subject: Cn1c(=O)[nH]c(=O)c2c1nc1n2CCN(CCc2ccc(Cl)c(Cl)c2)C1 [Compound 13g]
*A* 0.864 µM

*Q* Requested read-out: IC50. Entry: CCn1c(=O)c2c(nc3n2CCN(Cc2cc(Br)ccc2F)C3)n(C)c1=O [Compound 14o]
*A* 3.07 µM

*Q* Entry under review: CCn1c(=O)c2c(nc3n2CCN(Cc2cc(C(F)(F)F)ccc2F)C3)n(CC)c1=O [Compound 15j] . Reported IC50?
*A* < 10 µM

* * *

# TARGET OR TEST SYSTEM: human A3 AR (Homo sapiens)
# Construct: expressed in transfected cells; host or cells: CHO cells
# PROTOCOL DETAILS: Radioligand binding assay at human A3 AR vs. [^3H]PSB-11
# SETUP CONDITIONS: CHO cell membranes, n = 2 (n = 3 where marked a), read-out: Ki ± SEM, A3 vs. [^3H]PSB-11
PARAMETER: Ki (µM)

1. C#CCn1c(=O)c2c(nc3n2CCN(c2ccc(F)cc2)C3)n(CC)c1=O [Compound 20b] :: 2.39

[A] CCCn1c(=O)c2c(nc3n2CCN(Cc2ccc(Cl)c(Cl)c2)C3)n(C)c1=O
[B] CCn1c(=O)c2c(nc3n2CCN(Cc2ccccc2C(F)(F)F)C3)n(C)c1=O [Compound 14d]
*Q* Recorded Ki values differ for A and B ; which one is higher? Record your answer as the label of the chosen record.
*A* A
(A: 12.7 µM, B: 8.76 µM)

* * *

# TARGET OR TEST SYSTEM: human A3 AR (Homo sapiens, UniProt P0DMS8)
# Construct: expressed in transfected cells; host or cells: CHO cells
# Sequence (P0DMS8 1-318): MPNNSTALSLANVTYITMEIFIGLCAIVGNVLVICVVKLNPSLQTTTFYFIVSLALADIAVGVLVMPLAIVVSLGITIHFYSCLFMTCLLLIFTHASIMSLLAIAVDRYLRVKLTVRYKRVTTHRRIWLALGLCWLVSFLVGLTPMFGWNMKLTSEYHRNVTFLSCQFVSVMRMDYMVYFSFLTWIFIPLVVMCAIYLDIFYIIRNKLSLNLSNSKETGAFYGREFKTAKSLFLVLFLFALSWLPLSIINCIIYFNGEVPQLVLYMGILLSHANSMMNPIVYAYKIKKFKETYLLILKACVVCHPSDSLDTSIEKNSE
# PROTOCOL DETAILS: Radioligand binding assay at human A3 AR vs. [^3H]PSB-11
# SETUP CONDITIONS: CHO cell membranes, n = 2 (n = 3 where marked a), read-out: Ki ± SEM, A3 vs. [^3H]PSB-11
PARAMETER: Ki

1. CCn1c(=O)c2c(nc3n2CCN(Cc2ccc(F)c(C(F)(F)F)c2)C3)n(CC)c1=O [Compound 15i] :: > 10 µM
2. Cn1c(=O)[nH]c(=O)c2c1nc1n2CCN(CCc2ccc(Cl)cc2Cl)C1 [Compound 13f] :: 17.2 µM
3. CCn1c(=O)c2c(nc3n2CCN(Cc2cc(C(F)(F)F)ccc2Cl)C3)n(CC)c1=O [Compound 15n] :: > 10 µM
4. Cn1c(=O)[nH]c(=O)c2c1nc1n2CCN(CCc2cccc(Br)c2)C1 [Compound 13d] :: ~10 µM
5. Cn1c(=O)c2c(nc3n2CCN(Cc2ccc(Cl)c(Cl)c2)C3)n(C2CC2)c1=O :: > 10 µM
6. C#CCn1c(=O)c2c(nc3n2CCN(Cc2ccc(Cl)c(Cl)c2)C3)n(C)c1=O [Compound 19a] :: 5.63 µM
7. CCn1c(=O)c2c(nc3n2CCN(Cc2ccccc2Br)C3)n(C)c1=O [Compound 14a] :: > 10 µM

Please look at the following compound next.
*Q* Need Ki of C#CCn1c(=O)c2c(nc3n2CCN(Cc2ccccc2)C3)n(CC)c1=O [Compound 20e] , thanks.
*A* > 10 µM

* * *

# TARGET OR TEST SYSTEM: human A3 AR (Homo sapiens)
# Construct: expressed in transfected cells; host or cells: CHO cells
# PROTOCOL DETAILS: Radioligand binding assay at human A3 AR vs. [^3H]PSB-11
# SETUP CONDITIONS: at 10,000 nM, read-out: % inhibition of radioligand binding at indicated concentration, A3 vs. [^3H]PSB-11
PARAMETER: inhibition at 10 µM (%)

# example entries with known answers
1. CCn1c(=O)c2c(nc3n2CCN(Cc2cc(C(F)(F)F)ccc2Cl)C3)n(C)c1=O [Compound 14m] :: 35
2. CCn1c(=O)c2c(nc3n2CCN(Cc2cc(Br)ccc2F)C3)n(C)c1=O [Compound 14o] :: 39
3. C#CCn1c(=O)c2c(nc3n2CCN(Cc2cccc(OC)c2)C3)n(CC)c1=O [Compound 20g] :: 40
4. CCn1c(=O)c2c(nc3n2CCN(Cc2cccc(C(F)(F)F)c2F)C3)n(CC)c1=O [Compound 15h] :: 29

[a] CCn1c(=O)c2c(nc3n2CCN(Cc2cc(Cl)ccc2Cl)C3)n(C)c1=O [Compound 14j]
[b] CCn1c(=O)c2c(nc3n2CCN(Cc2cc(C(F)(F)F)ccc2F)C3)n(CC)c1=O [Compound 15j]
[c] C#CCn1c(=O)c2c(nc3n2CCN(CCc2cccc(OC)c2)C3)n(CC)c1=O [Compound 20j]
*Q* Sort (3 compounds) by inhibition at 10 µM: min first. In your reply, arrange the labels in the requested order.
*A* c, b, a
(c: 13%, b: 25%, a: 42%)

[I] CCn1c(=O)c2c(nc3n2CCN(Cc2cccc(C(F)(F)F)c2)C3)n(CC)c1=O [Compound 15g]
[II] C#CCn1c(=O)c2c(nc3n2CCN(CCc2ccc(OC)cc2)C3)n(CC)c1=O [Compound 20k]
*Q* I'd appreciate it if you could identify which of I and II has the greater inhibition at 10 µM. Refer to your chosen entry by its label in the reply.
*A* I
(I: 36%, II: 22%)

[1] CCn1c(=O)c2c(nc3n2CCN(Cc2cc(F)cc(C(F)(F)F)c2)C3)n(C)c1=O [Compound 14p]
[2] C#CCn1c(=O)c2c(nc3n2CCN(CCc2ccc(OC)c(OC)c2)C3)n(CC)c1=O [Compound 20l]
[3] C#CCn1c(=O)c2c(nc3n2CCN(Cc2cc(C(F)(F)F)ccc2Cl)C3)n(C)c1=O [Compound 19b]
*Q* Ranking field: inhibition at 10 µM; order: falling. Please list the labels according to the requested order.
*A* 1, 3, 2
(1: 39%, 3: 25%, 2: 12%)

[a] CCn1c(=O)c2c(nc3n2CCN(Cc2cc(C(F)(F)F)ccc2Cl)C3)n(CC)c1=O [Compound 15n]
[b] CCn1c(=O)c2c(nc3n2CCN(Cc2c(Cl)cccc2Cl)C3)n(C)c1=O [Compound 14k]
*Q* I need your help: which of the pair a , b has higher inhibition at 10 µM? Pick one and reply with its label.
*A* a
(a: 38%, b: 17%)

[A] CCn1c(=O)c2c(nc3n2CCN(Cc2ccccc2Br)C3)n(C)c1=O [Compound 14a]
[B] CCn1c(=O)n(C)c(=O)c2c1nc1n2CCN(Cc2ccc(Cl)c(Cl)c2)C1 [Compound 16a]
*Q* Among A and B , whose measured inhibition at 10 µM is the smaller figure? Selection: enter the item's label.
*A* B
(B: 19%, A: 36%)

[I] CCn1c(=O)c2c(nc3n2CCN(Cc2cccc(C(F)(F)F)c2F)C3)n(C)c1=O [Compound 14l]
[II] Cn1c(=O)[nH]c(=O)c2c1nc1n2CCN(CCc2cccc(Br)c2)C1 [Compound 13d]
[III] CCn1c(=O)c2c(nc3n2CCN(Cc2cc(F)c(F)c(F)c2)C3)n(CC)c1=O [Compound 15r]
*Q* Rank descending by inhibition at 10 µM. Record the ranking as a list of labels in the requested order.
*A* II, I, III
(II: 45%, I: 29%, III: 14%)

[P] Cn1c(=O)[nH]c(=O)c2c1nc1n2CCN(CCc2cccc(C(F)(F)F)c2)C1 [Compound 13e]
[Q] CCn1c(=O)n(C)c(=O)c2c1nc1n2CCN(Cc2cc(Cl)cc(Cl)c2)C1 [Compound 16b]
*Q* Higher inhibition at 10 µM: P or Q ? Answer by quoting the chosen item's label.
*A* P
(P: 39%, Q: 23%)

[P] C#CCn1c(=O)c2c(nc3n2CCN(Cc2ccccc2)C3)n(CC)c1=O [Compound 20e]
[Q] CCn1c(=O)c2c(nc3n2CCN(Cc2cccc(F)c2)C3)n(C)c1=O [Compound 14g]
*Q* Looking only at measured inhibition at 10 µM, which entry is lower, P or Q ? Output the label that corresponds to your choice.
*A* Q
